The origin of these recorded values is patent US20260116991A1.

Reported Max MFI values for a set of binders
Target: T1, human GPC3 on CHO-K1-human GPC3 cells (clone CHOK1-hGPC3.2B5) (human, UniProt P51654 25-554)
T1 construct: whole, on cells; Stably transfected CHO-K1 clone 2B5
Assay: FACS on CHOK1-hGPC3.2B5 cells;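 note: flow cytometry binding of chimeric antibodies to the cells, read out as mean fluorescence intensity, with the half-maximal concentration derived by curve fitting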
Write the value in MFI as a bare number.

[
  {
    "BINDER": "F4.13.7 human-murine chimeric antibody (antibody, human IgG1, kappa, V domains shown) VH: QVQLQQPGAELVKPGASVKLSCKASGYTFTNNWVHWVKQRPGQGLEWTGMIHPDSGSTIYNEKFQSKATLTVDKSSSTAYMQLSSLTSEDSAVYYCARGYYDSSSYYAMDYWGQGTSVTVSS VL: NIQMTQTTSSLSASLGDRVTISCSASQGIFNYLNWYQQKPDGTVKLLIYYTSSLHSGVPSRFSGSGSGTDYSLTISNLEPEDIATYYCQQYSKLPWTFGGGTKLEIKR",
    "MEASUREMENT KIND": "Max MFI",
    "RESULT": 1710
  }
]

# input for lookup
If you can, please state the reported Max MFI value of F1.115.8 human-murine chimeric antibody (antibody, human IgG1, kappa, V domains shown) VH: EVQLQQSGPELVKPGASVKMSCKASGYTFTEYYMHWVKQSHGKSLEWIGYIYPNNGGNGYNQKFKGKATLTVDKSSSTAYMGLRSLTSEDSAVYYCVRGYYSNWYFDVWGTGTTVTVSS VL: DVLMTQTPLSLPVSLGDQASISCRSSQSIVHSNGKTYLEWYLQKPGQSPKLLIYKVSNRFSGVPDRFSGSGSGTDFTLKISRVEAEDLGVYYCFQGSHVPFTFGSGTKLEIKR .
9980
